molecular target: Fab D6 (rabbit); experiment: SPR; Biacore T200; each Fab immobilised on a CM5 chip by amine coupling; peptides injected at increasing concentrations; running buffer PBS with 0.005% Tween 20; global fitting of the curves, or steady-state analysis where kinetic parameters could not be determined (fast dissociation, low affinity)
Sequence (heavy, as listed by the source, chain 1 of 2): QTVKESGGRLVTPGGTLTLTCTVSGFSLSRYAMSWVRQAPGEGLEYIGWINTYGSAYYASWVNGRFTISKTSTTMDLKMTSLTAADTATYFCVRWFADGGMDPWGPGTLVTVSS
Sequence (light, as listed by the source, chain 2 of 2): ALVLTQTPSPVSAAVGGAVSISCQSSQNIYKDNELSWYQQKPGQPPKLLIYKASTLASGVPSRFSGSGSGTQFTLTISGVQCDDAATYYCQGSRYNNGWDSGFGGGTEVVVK
Observable: Kd (µM)
Use µM as the unit, but write only the number.

Ask: Please supply the value of reported Kd for the item NPIFEKFGKGGTYP [MAP3K2 peptide, …]
Result: 180
